We begin with a simple list: items and their reported growth.
Tested on: NCI-H522 lung
Assay: NCI-60 one-dose screen, 48 h (100 = growth as untreated, 0 = no growth, -100 = all killed)
Settings: 10 µM unless noted
Protocol: Growth inhibition of the NCI-H522 human Non-Small Cell Lung tumor cell line is measured as a screen for anti-cancer activity. Cells are grown in 96 well plates and exposed to the test compound for 48 hours. Compounds are tested at a single concentration, which is 10^-5 M for most compounds. The reported endpoint is percent growth (GI% or GIPRCNT), where numbers from 0 - 100% represent growth inhibition, and numbers from -100% - 0 represent cell death. […]
Compounds without any hit were thinned out: in the full panel of roughly 83,000, 20% have a hit. Calls of active or inactive are those of the source. The calls were made as follows: active = growth percent below 10; inactive = the rest.
parameter: growth

| molecule | target | recorded.result |
| --- | --- | --- |
| CSc1nc2sc3c(c2c(=O)n1-c1ccc(C(C)C)cc1)CCC(=O)C3 | NCI-H522 lung | -75.3% (active) |
| O=C1/C(=C/c2ccccc2)CN(CCC(=O)N2C/C(=C\c3ccccc3)C(=O)/C(=C/c3ccccc3)C2)C/C1=C\c1ccccc1 | NCI-H522 lung | 53.9% (inactive) |
| CN1CCN(Cc2ccc(NC(=O)c3cncc(C#Cc4cnc(N)c5cccnc45)c3)cc2C(F)(F)F)CC1 | NCI-H522 lung | 28.4% (inactive) |
| COc1ccc(-c2c(C)noc2-c2ccc(O)cc2O)cc1 | NCI-H522 lung | 69.5% (inactive) |
| O=C(Nc1cccc2c1C(=O)c1cccc(Nc3cccc4c3C(=O)c3cccc(NC(=O)c5ccccc5)c3C4=O)c1C2=O)c1ccccc1 | NCI-H522 lung | 112% (inactive) |
| Brc1cccc(-c2cc(-c3ccc4c(c3)OCCO4)[nH]n2)c1 | NCI-H522 lung | -5.75% [25 µM] (active) |
| Cc1noc(C)c1-c1cc(O)cc(C(O)c2ccccc2)c1 (stereo unspecified) | NCI-H522 lung | 22.1% (inactive) |
| CCOC(=O)C(=Cc1ccccc1F)C(=O)OCC | NCI-H522 lung | 65.2% (inactive) |
| Cn1cc(-c2ccc(-c3cn(C)c4ncccc34)[nH]2)c2cccnc21 | NCI-H522 lung | -77.3% (active) |
| CCCCN(CCCC)CCC(C)(O)c1cc2ccccc2c2ccccc12 (stereo unspecified) | NCI-H522 lung | 91.4% (inactive) |
| Cn1c2ccccc2c2c3[nH]c(=O)[nH]c(=O)c3c3c4ccccc4n(C)c3c21 | NCI-H522 lung | 20.4% (inactive) |
| CN1CCN(c2ccc3nc(-c4ccc5nc(-c6ccc(OCCC(C)(C)C)cc6)[nH]c5c4)[nH]c3c2)CC1 | NCI-H522 lung | -38% (active) |
| O=C(NC(Cc1ccccc1)C(=O)CCl)OCc1ccccc1 (stereo unspecified) | NCI-H522 lung | 6.56% (active) |
| O=C1Nc2ccccc2C12CC(c1ccc(Cl)cc1)=NN2 (stereo unspecified) | NCI-H522 lung | 90.1% (inactive) |
| CCN(CC)CCC(=O)c1ccc(OC)c2ccccc12 | NCI-H522 lung | 12.6% (inactive) |
| COc1ccc(OCC(=O)Nc2ccc(-c3nc4ccccc4s3)cc2C)cc1 | NCI-H522 lung | 61.6% (inactive) |
| CC(=O)O[C@H]1CC[C@]2(C)[C@H]3CC[C@@H]4[C@H]5[C@H](C(C)C)CC[C@]5(C(=O)OCC(CO)(CO)N=C(N)N)CC[C@@]4(C)[C@]3(C)CC[C@H]2C1(C)C | NCI-H522 lung | -69.6% (active) |
| CS(=O)CCCCCN=C=S (stereo unspecified) | NCI-H522 lung | -25.4% (active) |
| O=C1/C(=C/c2ccc(F)cc2)CN(C(=O)CCN2CCC(=NO)CC2)C/C1=C\c1ccc(F)cc1 | NCI-H522 lung | -72.6% (active) |
| CC[n+]1ccc2c(c1)C(=O)c1nccc3c1c-2nc1ccccc13 | NCI-H522 lung | -38% (active) |
| CCCCCCCCCCCCN1CCCC(C)C1 (stereo unspecified) | NCI-H522 lung | 69.3% (inactive) |
